Target sequence: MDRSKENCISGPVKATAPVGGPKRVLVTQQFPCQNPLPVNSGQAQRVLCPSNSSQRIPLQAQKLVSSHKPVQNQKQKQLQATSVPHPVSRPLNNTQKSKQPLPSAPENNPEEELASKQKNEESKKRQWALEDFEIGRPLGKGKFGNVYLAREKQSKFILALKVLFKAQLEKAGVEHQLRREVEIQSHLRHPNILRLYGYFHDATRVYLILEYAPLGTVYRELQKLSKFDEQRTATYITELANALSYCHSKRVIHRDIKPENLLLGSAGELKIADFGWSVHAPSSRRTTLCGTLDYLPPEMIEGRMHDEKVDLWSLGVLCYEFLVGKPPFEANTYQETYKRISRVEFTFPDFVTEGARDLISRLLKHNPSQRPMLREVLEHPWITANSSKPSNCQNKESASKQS
valueType: IC50 (nM)

| compound | units | IC50 |
| --- | --- | --- |
| COc1ccc(-c2nc3c(N4CCN(Cc5cc(C)on5)CC4)c(Br)cnc3[nH]2)cc1 | nM | 17 |
| CN(C)c1ccc(-c2nc3c(N4CCN(CC(=O)Nc5nccs5)CC4)c(C#N)cnc3[nH]2)cc1 | nM | 50 |
| CC(c1ccccc1)N1CCN(c2c(Cl)cnc3[nH]c(-c4ccc(N(C)C)cc4)nc23)CC1 (centres undefined) | nM | 79 |
| CC(c1ccncc1)N1CCN(c2c(Br)cnc3[nH]c(-c4ccc(N(C)C)cc4)nc23)CC1 (centres undefined) | nM | 85 |

(P) CN(C)c1ccc(-c2nc3c(N4CCN(S(=O)(=O)c5ccccc5)CC4)c(Br)cnc3[nH]2)cc1
(Q) COc1ccc(-c2nc3c(N4CCN(Cc5cncnc5)CC4)c(Br)cnc3[nH]2)cc1
(R) O=C(CN1CCN(c2c(Cl)cnc3[nH]c(-c4ccc(CN5CCOCC5)cc4)nc23)CC1)Nc1nccs1
Ask: Please put the entries in order of rising IC50. # respond with the labels, arranged in the requested order
Reply: R, Q, P

(P) CN(C)c1ccc(-c2nc3c(N4CCN(CC(=O)Nc5nccs5)CC4)c(Br)cnc3[nH]2)cc1
(Q) CN(C)c1ccc(-c2nc3c(N4CCN(CC(=O)Nc5ccccc5)CC4)c(Cl)cnc3[nH]2)cc1
Ask: Between the two listed entries P and Q , which has its IC50 at the higher number? Answer by quoting the chosen item's label.
Reply: Q
(Q: 115 nM, P: 55 nM)
